procedure summary: Apparent permeability across apical to basolateral side in human Caco-2 cells at 2 uM measured after 2 hrs by LC-MS/MS analysis
Format: ADME, cell-based
reported property: Papp A→B at 2 h, 2 µM (×10⁻⁶ cm/s)
The response must be a number in ×10⁻⁶ cm/s with no trailing unit.

In: Using the record for `O=C(CCCCCCCCC[P+](c1ccc(C(F)(F)F)cc1)(c1ccc(C(F)(F)F)cc1)c1ccc(C(F)(F)F)cc1)NC(COC(=O)CCCc1ccccc1)(COC(=O)CCCc1ccccc1)COC(=O)CCCc1ccccc1.[Br-]` , state its measured Papp A→B at 2 h, 2 µM.
Out: 24.3

----------
procedure summary: Cytotoxicity against HUVEC assessed as cell growth inhibition measured after 72 hrs by MTT assay
Assay type: toxicity, cell-based
condition context: human
reported property: IC50 at 72 h

In: Using the record for `O=C(CCCc1ccccc1)NCC(CNC(=O)CCCc1ccccc1)(CNC(=O)CCCc1ccccc1)NC(=O)CCCCCCCCC[P+](c1ccc(C(F)(F)F)cc1)(c1ccc(C(F)(F)F)cc1)c1ccc(C(F)(F)F)cc1` , state its measured IC50 at 72 h.
Out: > 20 µM

----------
Listing of recorded pIC50 by entry.
System: A549
procedure summary: Antiproliferative activity against human A549 cells assessed as inhibition of cell viability incubated for 72 hrs by MTT assay
Type: functional, cell-based
condition context: A549, 72 h
Friendly reminder that pIC50 comes from taking -log10 of the concentration in mol/L.

> print(dat)
                                smiles.data   tgt  measured.result
1  O=C(CCCc1ccccc1)NCC(CNC(=O)CCCc1ccccc1)(CNC(=O)CCCc1ccccc1)NC(=O)CCCCCCCCC[P+](c1ccc(F)cc1)(c1ccc(F)cc1)c1ccc(F)cc1  A549             5.66
2  O=C(CCCCC[P+](c1ccccc1)(c1ccccc1)c1ccccc1)NC(COC(=O)CCCc1ccccc1)(COC(=O)CCCc1ccccc1)COC(=O)CCCc1ccccc1  A549             5.97

Proceeding to the next compound to report its pIC50.
In: Using the record for `O=C(CCCc1ccccc1)NCC(CNC(=O)CCCc1ccccc1)(CNC(=O)CCCc1ccccc1)NC(=O)CCCCCCC[P+](c1ccccc1)(c1ccccc1)c1ccccc1` , state its measured pIC50.
Out: 5.85

----------
procedure summary: Apparent permeability across basolateral to apical side in human Caco-2 cells at 2 uM measured after 2 hrs by LC-MS/MS analysis
Assay type: ADME, cell-based
Listing of recorded Papp B→A at 2 h, 2 µM by entry.
The response must be a number in ×10⁻⁶ cm/s with no trailing unit.

smiles data	Papp B→A at 2 h, 2 µM, ×10⁻⁶ cm/s
O=C(O)CCCc1ccccc1	0.74

Proceeding to the next compound to report its Papp B→A at 2 h, 2 µM.
In: Using the record for `O=C(CCCCCCCCC[P+](c1ccc(C(F)(F)F)cc1)(c1ccc(C(F)(F)F)cc1)c1ccc(C(F)(F)F)cc1)NC(COC(=O)CCCc1ccccc1)(COC(=O)CCCc1ccccc1)COC(=O)CCCc1ccccc1.[Br-]` , state its measured Papp B→A at 2 h, 2 µM.
Out: 16.8

Measured values drawn from ChEMBL document CHEMBL5120920 for this set.
